test system: Human rhinovirus sp.; test: In vitro minimum inhibitory concentration against human rhinovirus-14 (HRV-14); format: functional
MEASURED METRIC: MIC (µg/mL)
Only the number, expressed in µg/mL, is required.

1) CC[C@@H]1COC(c2ccc(OCCCCCCCc3cc(C)no3)cc2)=N1 : 0.06
2) Cc1cc(CCCCCCCOc2ccc(C3=NC(C)(C)CO3)cc2)on1 : 0.03
3) CCCC[C@@H]1COC(c2ccc(OCCCCCCCc3cc(C)no3)cc2)=N1 : 0.52
4) Cc1cc(CCCCCCCOc2ccc(C3=NCCO3)cc2)on1 : 0.14
5) CCC[C@H]1COC(c2ccc(OCCCCCCCc3cc(C)no3)cc2)=N1 : 0.01
6) Cc1cc(CCCCCCCOc2ccc(C3=N[C@@H](C)CO3)cc2)on1 : 0.02
7) CCC[C@@H]1COC(c2ccc(OCCCCCCCc3cc(C)no3)cc2)=N1 : 0.07
8) Cc1cc(CCCCCCCOc2ccc(C3=N[C@@H](C(C)C)CO3)cc2)on1 : 0.03

Inquiry: Identify measured MIC associated with `Cc1cc(CCCCCCCOc2ccc(C3=N[C@H](C)CO3)cc2)on1`
Reply text: 0.2

Inquiry: Identify measured MIC associated with `CC[C@H]1COC(c2ccc(OCCCCCCCc3cc(C)no3)cc2)=N1`
Reply text: 0.01
